experiment: CCTE_Harrill_HTTr_Apoptosis_MCF7: CCTE's 6-hour Apoptosis Assessment for the High-Throughput Transcriptomics (HTTr) Platform, in MCF-7 cells cultured in DMEM + 10% fetal bovine serum, Harrill Lab (AID 2284011)
Active and inactive are the calls of the source. Rule for the calls: active = hit-call score of the fitted dose curve at least 0.9, where 1 is the maximum; inactive = score below 0.9.
Respond using exactly one of the listed classes: active, inactive

Examples from the recorded data:
• CN(C)CCOc1ccc(/C(=C(/CCCl)c2ccccc2)c2ccccc2)cc1 = active
• O=c1c(O)c(-c2ccc(O)cc2)oc2cc(O)cc(O)c12 = inactive
• CC1(C)C2=CCCC(C)(C)[C@]23CC[C@H]1C3 = inactive
• CCC1(c2ccccc2)C(=O)NCNC1=O = inactive

Fill in: this test's call for CC1=CC[C@@]23C[C@@H]1C(C)(C)[C@@H]2CC[C@H]3C is ___ inactive

Write down the call the test reported for this molecule. Item: CC(C)NCC(O)COc1ccc(CC(N)=O)cc1 (stereo unspecified) inactive
